Origin of values: PubChem BioAssay (NCI)

- Tested on: CAKI-1 renal
- assay: NCI-60 one-dose screen, 48 h
- measurement_setup: 10 µM unless noted
- Protocol: Growth inhibition of the CAKI-1 human tumor cell line is measured as a screen for anti-cancer activity. Cells are grown in 96 well plates and exposed to the test compound for 48 hours. Compounds are tested at a single concentration, which is 10^-5 M for most compounds. The reported endpoint is percent growth (GI% or GIPRCNT), where numbers from 0 - 100% represent growth inhibition, and numbers from -100% - 0 represent cell death. For example, a value of 40 represents 60% growth inhibition. […]
This is part of a sample that, as a whole, favours compounds with a hit. Of some 83,000 tested, about 20% had one in any assay. The source made the active and inactive calls. Rule for the calls: active = growth percent below 10; inactive = the rest.
Classes used: active, inactive

[[record]]
compound = "Cc1nc(Nc2ccc(NC(=S)Nc3ccccc3)cc2)nc2nc(Nc3ccc(S(=O)(=O)O)cc3)[nH]c(=O)c12"
system_tested = "CAKI-1 renal"
assigned_class = "inactive"

[[record]]
compound = "CN1CCC(=C2c3ccccc3C=Cc3ccccc32)CC1"
system_tested = "CAKI-1 renal"
assigned_class = "inactive"

[[record]]
compound = "CC1(C)N=C(N)N=C(N)N1c1cccc(CN)c1"
system_tested = "CAKI-1 renal"
assigned_class = "inactive"

[[record]]
compound = "CCn1c(Sc2nnc(NC(C)=O)s2)nc2c1c(=O)n(C)c(=O)n2C"
system_tested = "CAKI-1 renal"
assigned_class = "inactive"

[[record]]
compound = "COc1ccc(/C=C2\\COc3ccc(O)c(O)c3C2=O)c(OC)c1"
system_tested = "CAKI-1 renal"
assigned_class = "inactive"

[[record]]
compound = "CCCCCCCC/C=C/CCCCCCCC1=NCC[N+]1(CCO)CCO"
system_tested = "CAKI-1 renal"
assigned_class = "inactive"

[[record]]
compound = "CN1CCN(CCCOc2ccc3nc(Nc4cc(Cl)cc(Cl)c4)ccc3c2)CC1"
system_tested = "CAKI-1 renal"
assigned_class = "active"

[[record]]
compound = "CNC(=O)NCC1OC(n2cnc3c(NC(=O)Nc4ccccc4)ncnc32)C2OC(C)(C)OC12 (stereo unspecified)"
system_tested = "CAKI-1 renal"
assigned_class = "inactive"

[[record]]
compound = "C=C1c2c(C)nn(-c3ccc(O)cc3)c2N(C)C23C[C@@H]1C1(C)c4c(C)nn(-c5ccc(O)cc5)c4N(C)C(C)(C[C@H]12)C3 (stereo partly specified)"
system_tested = "CAKI-1 renal"
assigned_class = "inactive"

[[record]]
compound = "O[C@H]1CO[C@H]2[C@@H]1OC[C@@H]2Oc1ccc(Nc2nc(Nc3ccc(F)c(Cl)c3)ncc2F)cc1Cl"
system_tested = "CAKI-1 renal"
assigned_class = "inactive"

[[record]]
compound = "COc1ccc(Oc2nc(Nc3ccc(N4CCCCC4)nc3)ncc2NC(=O)c2cc(OC)cc(OC)c2)cc1"
system_tested = "CAKI-1 renal"
assigned_class = "inactive"

[[record]]
compound = "Fc1ccc(Nc2ccc3cc(OCCCN4CCOCC4)ccc3n2)cc1F"
system_tested = "CAKI-1 renal"
assigned_class = "inactive"

[[record]]
compound = "CCN(CC)CCCNC(=O)c1ccc(N)cc1"
system_tested = "CAKI-1 renal"
assigned_class = "inactive"

[[record]]
compound = "O=C1C2=C(CCN(Cc3ccccc3)C2)N2CCN=C2N1Cc1ccc(C(F)(F)F)cc1"
system_tested = "CAKI-1 renal"
assigned_class = "inactive"

[[record]]
compound = "Cc1ccc(S(=O)(=O)N(CC[C@@H]2C[C@H]2c2cc3ccccc3o2)C(=O)NC2CCCCC2)cc1"
system_tested = "CAKI-1 renal"
assigned_class = "inactive"

[[record]]
compound = "COc1cccc(-c2nc3sccn3c2-c2ccnc(NCCNS(=O)(=O)c3c(Cl)cccc3Cl)c2)c1"
system_tested = "CAKI-1 renal"
assigned_class = "inactive"

[[record]]
compound = "CCOC(=O)c1ccc(-c2ccc3cc(OC)ccc3c2)nc1C"
system_tested = "CAKI-1 renal"
assigned_class = "inactive"

[[record]]
compound = "Cc1nc(-c2ccccc2)cc2c(O)c(C(=O)N/N=C/c3ccc(N(C)C)cc3)[nH]c(=O)c12"
system_tested = "CAKI-1 renal"
assigned_class = "inactive"

[[record]]
compound = "CC(C)(O)c1cccc(F)c1"
system_tested = "CAKI-1 renal"
assigned_class = "inactive"

[[record]]
compound = "CN(C)c1ccc(C#Cc2c(F)cccc2Cl)cc1"
system_tested = "CAKI-1 renal"
assigned_class = "inactive"

[[record]]
compound = "Cc1cn(C2CCCCC2)c(=O)[nH]c1=O"
system_tested = "CAKI-1 renal"
assigned_class = "inactive"

